System: TK-10
assay details: NCI tumour cell line growth inhibition, 48 h
The source made the active and inactive calls. No stated cut-off is given here; in the data, active = GI50 up to about 1.1 µM and inactive = higher.
value type: GI50

Recorded result, COC(=O)C1=COC2OC3CC1C2C(C)O3 (stereo not given) , GI50: > 100 µM (inactive)

Recorded result, CCC12CCCN(Cc3ccccc3)C1c1c(n(C)c3ccccc13)C(C(=O)OC)C2 (stereo not given) , GI50: > 239 µM (inactive)

Recorded result, CCOc1ccc(/C=C\c2cc(OC)c(OC)c(OC)c2)cc1 , GI50: 29.6 µM (inactive)

Recorded result, COC(=O)/C=C1/CCC2[C@@H](C(=O)CC3[C@]2(C)CCC[C@@]3(C)C(=O)OC)C1C (stereo not given in full) , GI50: 20 µM (inactive)

Recorded result, Cc1cc(O)c(C(C)C)cc1CN1CCCCC1 , GI50: > 100 µM (inactive)

Parameters: items (list). Returns: GI50 for each item.
1. CCCCCC/C=C\CCCCCCCCCc1cccc(O)c1C(=O)O [GINKGOLIC ACID 17:1]
2. O=C1Nc2ccccc2/C1=N/NC(=S)Nc1ccccc1Cl

OUT:
["65 µM (inactive)", "2.1 µM (inactive)"]

Parameters: items (list). Returns: GI50 for each item.
1. CC1=NN(c2nc(N)nc(NS(=O)(=O)c3cc(C)c(Cl)cc3S)n2)C(C)(C)C1
2. COC(=O)/C=C(\C)CC/C=C(\C)CCC(O)C(C)(C)O (stereo not given)
3. O=C(/C=C/c1ccco1)c1cccc(C(=O)/C=C/c2ccco2)n1
4. COc1cc(/C=C2\N=C(c3ccccc3)N(c3nc4ccccc4s3)C2=O)cc(OC)c1OC
5. Cc1ccccc1C1=C/C(=C(\SS/C(C(=O)c2ccc(OCC(=O)O)c(Cl)c2Cl)=C2\C=C(c3ccccc3C)SS2)C(=O)c2ccc(OCC(=O)O)c(Cl)c2Cl)SS1

OUT:
1: > 10 µM (inactive); 2: 45 µM (inactive); 3: 41.2 µM (inactive); 4: > 100 µM (inactive); 5: 35.9 µM (inactive)

Parameters: items (list). Returns: GI50 for each item.
1. Cc1c(NC(=O)CSC(=S)N2CCN(Cc3ccccc3)CC2)c(=O)n(-c2ccccc2)n1C
2. O=C(NCCN1CCOCC1)c1ccc2cc(C(=O)N3CC(CCl)c4ccc([N+](=O)[O-])cc43)[nH]c2c1 (stereo not given)
3. c1ccc(-c2nnc3nn4c(-c5ccccc5)cnnc4c3c2-c2ccccc2)cc1
4. N=c1oc2ccc([N+](=O)[O-])cc2cc1C(=O)NCc1ccccc1
5. COc1nc(N)c(C#N)c(C#N)c1C#N

OUT:
["> 100 µM (inactive)", "16.9 µM (inactive)", "19.2 µM (inactive)", "29.2 µM (inactive)", "> 10 µM (inactive)"]

----------
Test system: SNB-75
assay details: NCI tumour cell line growth inhibition, 48 h
The source made the active and inactive calls. Cut-off read from the data, not from the text of the source: active = GI50 up to about 1.1 µM and inactive = higher.
Respond using exactly one of the listed classes: 1 (active), 0 (inactive)

IN: Record lookup: outcome of this test for Cc1ccc(C(=O)Nc2ccc(S(=O)(=O)O)c3cc(S(=O)(=O)O)cc(S(=O)(=O)O)c23)cc1NC(=O)c1cccc(NC(=O)Nc2cccc(C(=O)Nc3cc(C(=O)Nc4ccc(S(=O)(=O)O)c5cc(S(=O)(=O)O)cc(S(=O)(=O)O)c45)ccc3C)c2)c1 ?
OUT: 0

IN: Record lookup: outcome of this test for CC(C)CCC[C@@H](C)[C@H]1CC[C@H]2[C@@H]3CC[C@H]4C[C@H](N)CC[C@]4(C)[C@H]3CC[C@]12C ?
OUT: 0

IN: Record lookup: outcome of this test for Cc1ccc(S(=O)(=O)C2=Cc3ccc(C(F)(F)F)cc3C2(O)c2cccc(C(F)(F)F)c2)cc1 (stereo not given) ?
OUT: 0

IN: Record lookup: outcome of this test for CN(C)c1ccc(/C=C2\N=C(NNc3ccccc3)NC2=O)cc1 ?
OUT: 0

IN: Record lookup: outcome of this test for COC(=O)C12CC3CC(C1)CC(C(=O)OC)(C3)C2 ?
OUT: 0

Next:
IN: Record lookup: outcome of this test for COC1=CC2C(c3cc4ccccc4n3S(=O)(=O)c3ccccc3)CC1CN2C(=O)OCc1ccccc1 (stereo not given) ?
OUT: 0

IN: Record lookup: outcome of this test for COc1ccc(/C=C2/NC(=S)N=C2Cl)cc1 ?
OUT: 0

IN: Record lookup: outcome of this test for CCOP(=O)(OCC)C(Cc1ccc(OC)c(OC)c1)N=C(c1ccccc1)c1ccccc1 (stereo not given) ?
OUT: 0

IN: Record lookup: outcome of this test for CSc1nc(NC2OCC(OC(C)=O)C(OC(C)=O)C2OC(C)=O)c(/N=C(\C)C(C)=O)c(=O)n1C (stereo not given) ?
OUT: 0

IN: Record lookup: outcome of this test for COC1OC(C(=O)O)C2OC(C)(C)OC12 (stereo not given) ?
OUT: 0

IN: Record lookup: outcome of this test for NCC#CCNCCCN1CC1 ?
OUT: 1

IN: Record lookup: outcome of this test for Cc1cc(O)c(C(C)C)cc1CN1CCCCC1 ?
OUT: 0

IN: Record lookup: outcome of this test for CN(C)CC1CCCCCCCCCCCCC(CN(C)C)C1=O (stereo not given) ?
OUT: 0

IN: Record lookup: outcome of this test for C/C=C(/C)C(=O)O[C@H](C[C@@H](C)[C@H]1CC(c2ccoc2)OC1=O)[C@@]1(C)C(=O)CCC2O[C@]21C (stereo not given in full) ?
OUT: 0

IN: Record lookup: outcome of this test for Cc1cc(C)c(S(=O)(=O)N[C@@H](/C=C(\Br)CO)C(C)C)c(C)c1 ?
OUT: 0

IN: Record lookup: outcome of this test for CSc1nnc(SCc2nn3c(=O)cc(C)nc3s2)s1 ?
OUT: 0

IN: Record lookup: outcome of this test for COc1ccc(C[C@H]2COC(=O)[C@@H]2Cc2ccc(Br)cc2)cc1OC ?
OUT: 0
